Experiment: BSK_3C_Proliferation: Cell Proliferation Assessment in the BioMAP Diversity Plus: 3C Assay (AID 2283006)
Conditions: primary human endothelial cells (HUVEC)
Calls of active or inactive are those of the source. Rule for the calls: active = hit-call score of the fitted dose curve at least 0.9, where 1 is the maximum; inactive = score below 0.9.
Log the outcome using a class from active, inactive

How did this test come out for `O=C1c2ccccc2C(=O)N1CCc1noc(-c2ccc(CN3CCCCCC3)s2)n1` ? inactive

How did this test come out for COCC(C)OCC(C)OCC(C)O (centres undefined) ? inactive

How did this test come out for `Cc1oc2c(NC(=O)c3c(Cl)cccc3Cl)cccc2c1C(C)(C)O` ? active

How did this test come out for `Cc1cc(F)ccc1-c1cc(N2CC[C@@H](O)[C@H]2CO)ncc1N(C)C(=O)C(C)(C)c1cc(C(F)(F)F)cc(C(F)(F)F)c1` ? active

How did this test come out for `O=c1[nH]sc2ccccc12` ? active

How did this test come out for `CCCC(=O)OCCC(C)C` ? inactive

How did this test come out for `NC(=O)c1nc(-c2cccc(-c3cc(F)ccc3OCC(F)(F)C(F)(F)F)c2)n[nH]1` ? active

How did this test come out for `O=C(Nc1ccc(Cl)cc1)Nc1ccc(Cl)c(Cl)c1` ? active

How did this test come out for `O=c1ccc2ccccc2o1` ? inactive

How did this test come out for `CC1(C)NC(=O)N(c2ccc([N+](=O)[O-])c(C(F)(F)F)c2)C1=O` ? inactive

How did this test come out for `CCN(Cc1cccc(S(=O)(=O)O)c1)c1ccc(C(=C2C=CC(=[N+](CC)Cc3cccc(S(=O)(=O)O)c3)C=C2)c2ccccc2S(=O)(=O)[O-])cc1` ? inactive

How did this test come out for CN1C(=O)N(c2ccccc2Br)Cc2cnc(Nc3ccc4c(c3)OCC(CO)O4)nc21 (centres undefined) ? active

How did this test come out for `Cc1c2ccccc2c(C)c2c1ccc1ccccc12` ? active

How did this test come out for `CCCCCc1ccc(N)cc1` ? active

How did this test come out for `CCCCCCCCCCCC[N+](C)(C)C` ? active

How did this test come out for `Cc1occc1C(=O)Nc1ccc(C(=O)N2CCC(F)(F)/C(=C\C(=O)N3CCC(N4CCCCC4)CC3)c3ccccc32)cc1` ? inactive

How did this test come out for `Cc1cccc2ccccc12` ? inactive

How did this test come out for `CCN(CC)C(=O)c1cc(S(=O)(=O)Cc2ccccc2)c(N2CCC(c3ccccc3)CC2)cc1N(CC)CCN(C)C` ? active

How did this test come out for `C[C@]12CC[C@@H]3c4ccc(O)cc4CC[C@H]3[C@@H]1CC[C@H]2O` ? active

How did this test come out for `c1ccc2ccccc2c1` ? inactive

How did this test come out for `CC(C)(C)c1csc(-c2cc3cc(OCc4ccccc4CC(=O)O)ccc3o2)n1` ? active

How did this test come out for `Oc1ccccc1` ? inactive

How did this test come out for `CCCCCCCCCC(=O)O` ? inactive

How did this test come out for `c1ccc(C[n+]2cccc3ccccc32)cc1` ? inactive

How did this test come out for `Clc1ccccc1C(c1ccccc1)(c1ccccc1)n1ccnc1` ? active

How did this test come out for `O=c1c(-c2ccc(O)cc2)coc2cc(O)cc(O)c12` ? active

How did this test come out for `O=C(O)c1ccccc1C(=O)OCc1ccccc1` ? inactive

How did this test come out for `CN(C[C@@H](CC[N+]12CCC(C3CCCCC3)(CC1)CC2)c1ccc(Cl)c(Cl)c1)C(=O)c1cc(C(F)(F)F)cc(C(F)(F)F)c1` ? active

How did this test come out for `CN1C(=O)CC[C@H]1c1cccnc1` ? inactive

How did this test come out for CC(O)CC(C)(C)O (centres undefined) ? inactive

How did this test come out for `CC1=CC(=O)/C(=C(/C)O)C(=O)O1` ? inactive

How did this test come out for `CC/C(=C(/CC)c1ccc(O)cc1)c1ccc(O)cc1` ? active

How did this test come out for `NCc1cccc(C2CCN(C(=O)c3ccc(C#Cc4ccccc4F)o3)CC2)c1` ? active

How did this test come out for `O=C(O)Cc1cc(I)c(Oc2ccc(O)c(I)c2)c(I)c1` ? active

How did this test come out for `COc1cccc([C@H](O)C2CCN(CCc3ccc(F)cc3)CC2)c1OC` ? inactive

How did this test come out for `CCO[Si](CCCNC(N)=O)(OCC)OCC` ? inactive

How did this test come out for `CN(C)c1ccc(C(=C2C=CC(=[N+](C)C)C=C2)c2ccc(N(C)C)cc2)cc1` ? active

How did this test come out for `CCCCCCCCOc1ccc(C(=O)c2ccccc2)c(O)c1` ? active

How did this test come out for OC12N=C(c3ccccc3)SC1Cc1cc(Cl)ccc12 (centres undefined) ? active

How did this test come out for `CO[C@H]1/C=C/O[C@@]2(C)Oc3c(C)c(O)c4c(O)c(c(/C=N/N5CCN(C)CC5)c(O)c4c3C2=O)NC(=O)/C(C)=C\C=C\[C@H](C)[C@H](O)[C@@H](C)[C@@H](O)[C@@H](C)[C@H](OC(C)=O)[C@@H]1C` ? inactive

How did this test come out for `CCOC(=O)O[C@H](C)OC(=O)c1ccc2c(c1)cc(C(=O)NC1CCN(C(C)C)CC1)n2Cc1cc(-c2ccc(Cl)s2)on1` ? active

How did this test come out for `Clc1cc(Cl)c2c(c1)N=C1CCCCCN1C2` ? inactive

How did this test come out for `CC(C)(O)c1ccc(CNC(=O)c2cccnc2Oc2ccc3nonc3c2)cc1` ? inactive

How did this test come out for `COc1cc(C(=O)NC2CCN(C)CC2)ccc1Nc1ncc2c(n1)N(C1CCCC1)CC(F)(F)C(=O)N2C` ? active

---

Read-out: CYP3A5 (gene 1577)
Assay: LTEA_HepaRG_CYP3A5: Life Technologies and Expression Analysis (LTEA) Assay for CYP3A5 using HepaRG (AID 2283493)
Conditions: mRNA level, 48 h; actives raise or lower the signal
Calls of active or inactive are those of the source. The calls were made as follows: active = hit-call score of the fitted dose curve at least 0.9, where 1 is the maximum; inactive = score below 0.9.
Log the outcome using a class from active, inactive

How did this test come out for `O=C(Nc1ccc(Cl)cc1)Nc1ccc(Cl)c(Cl)c1` ? inactive

How did this test come out for `CCCCOC(=O)CC(CC(=O)OCCCC)(OC(C)=O)C(=O)OCCCC` ? inactive

How did this test come out for `Cc1c2ccccc2c(C)c2c1ccc1ccccc12` ? active

How did this test come out for `c1ccc2ccccc2c1` ? inactive

How did this test come out for COCC(C)OCC(C)OCC(C)O (configuration not stated) ? inactive

How did this test come out for `O=C(OCCCCCCOC(=O)c1ccccc1)c1ccccc1` ? inactive

How did this test come out for `O=c1[nH]sc2ccccc12` ? inactive

How did this test come out for `COc1cc(C(=O)NC2CCN(C)CC2)ccc1Nc1ncc2c(n1)N(C1CCCC1)CC(F)(F)C(=O)N2C` ? inactive

How did this test come out for `CCN(Cc1cccc(S(=O)(=O)O)c1)c1ccc(C(=C2C=CC(=[N+](CC)Cc3cccc(S(=O)(=O)O)c3)C=C2)c2ccccc2S(=O)(=O)[O-])cc1` ? inactive

How did this test come out for `O=c1ccc2ccccc2o1` ? inactive

How did this test come out for `CCCCCc1ccc(N)cc1` ? inactive

How did this test come out for `Cc1oc2c(NC(=O)c3c(Cl)cccc3Cl)cccc2c1C(C)(C)O` ? inactive

---

Read-out: Heat shock 70 kDa protein 1 (HSPA1A), gene 3303
Assay: LTEA_HepaRG_HSPA1A: Life Technologies and Expression Analysis (LTEA) Assay for Heat shock 70 kDa protein 1 (HSPA1A) using HepaRG (AID 2283502)
Details: mRNA level, 48 h; actives raise or lower the signal
The source made the active and inactive calls. The calls were made as follows: active = hit-call score of the fitted dose curve at least 0.9, where 1 is the maximum; inactive = score below 0.9.
Log the outcome using a class from active, inactive

How did this test come out for `Cc1oc2c(NC(=O)c3c(Cl)cccc3Cl)cccc2c1C(C)(C)O` ? active

How did this test come out for `O=C1c2ccccc2C(=O)N1CCc1noc(-c2ccc(CN3CCCCCC3)s2)n1` ? inactive

How did this test come out for `CCCCCc1ccc(N)cc1` ? inactive

How did this test come out for `CCCCCCCCOc1ccc(C(=O)c2ccccc2)c(O)c1` ? inactive

How did this test come out for `NCc1cccc(C2CCN(C(=O)c3ccc(C#Cc4ccccc4F)o3)CC2)c1` ? inactive

How did this test come out for `Cc1cn([C@H]2C[C@H](N=[N+]=[N-])[C@@H](CO)O2)c(=O)[nH]c1=O` ? inactive

How did this test come out for `O=C(Nc1ccc(Cl)cc1)Nc1ccc(Cl)c(Cl)c1` ? active

How did this test come out for `CC(C)(C)c1cc(/C=C2\SC(N)=NC2=O)cc(C(C)(C)C)c1O` ? inactive

How did this test come out for `CCCCCCCCCCCCO` ? inactive

How did this test come out for OC12N=C(c3ccccc3)SC1Cc1cc(Cl)ccc12 (centres undefined) ? inactive

How did this test come out for `O=CCCCC=O` ? inactive

How did this test come out for `CC/C(=C(/CC)c1ccc(O)cc1)c1ccc(O)cc1` ? active

How did this test come out for `O=C(O)Cn1c(=O)n(Cc2ccc(Br)cc2F)c(=O)c2ccc(Cl)cc21` ? inactive

How did this test come out for `Cc1ccc(C(C)C)cc1` ? inactive

How did this test come out for `CC(C)(c1cc(Br)c(O)c(Br)c1)c1cc(Br)c(O)c(Br)c1` ? active

How did this test come out for `CC[C@@H]1C[C@H](N(Cc2cc(C(F)(F)F)cc(C(F)(F)F)c2)C(C)=O)c2cc(C(F)(F)F)ccc2N1C(=O)OC(C)C` ? inactive

How did this test come out for `Oc1ccccc1` ? inactive

How did this test come out for `CN(C[C@@H](CC[N+]12CCC(C3CCCCC3)(CC1)CC2)c1ccc(Cl)c(Cl)c1)C(=O)c1cc(C(F)(F)F)cc(C(F)(F)F)c1` ? active

How did this test come out for `CC1=CC(=O)/C(=C(/C)O)C(=O)O1` ? inactive

How did this test come out for `Cc1occc1C(=O)Nc1ccc(C(=O)N2CCC(F)(F)/C(=C\C(=O)N3CCC(N4CCCCC4)CC3)c3ccccc32)cc1` ? inactive

How did this test come out for `Cc1ncc(CO)c(CO)c1O` ? inactive

How did this test come out for `O=C(O)c1ccccc1C(=O)OCc1ccccc1` ? inactive

How did this test come out for `Cc1cccc2ccccc12` ? inactive

How did this test come out for `CC(=O)N1CCN(c2ccc(OC[C@H]3CO[C@](Cn4ccnc4)(c4ccc(Cl)cc4Cl)O3)cc2)CC1` ? active

Values from PubChem BioAssay (EPA / NIEHS)
